Please go through the items and note down their pIC50.
# assayed-target: HDAC9 (Homo sapiens)
# Sequence (Q9UKV0 whole entry, species assumed): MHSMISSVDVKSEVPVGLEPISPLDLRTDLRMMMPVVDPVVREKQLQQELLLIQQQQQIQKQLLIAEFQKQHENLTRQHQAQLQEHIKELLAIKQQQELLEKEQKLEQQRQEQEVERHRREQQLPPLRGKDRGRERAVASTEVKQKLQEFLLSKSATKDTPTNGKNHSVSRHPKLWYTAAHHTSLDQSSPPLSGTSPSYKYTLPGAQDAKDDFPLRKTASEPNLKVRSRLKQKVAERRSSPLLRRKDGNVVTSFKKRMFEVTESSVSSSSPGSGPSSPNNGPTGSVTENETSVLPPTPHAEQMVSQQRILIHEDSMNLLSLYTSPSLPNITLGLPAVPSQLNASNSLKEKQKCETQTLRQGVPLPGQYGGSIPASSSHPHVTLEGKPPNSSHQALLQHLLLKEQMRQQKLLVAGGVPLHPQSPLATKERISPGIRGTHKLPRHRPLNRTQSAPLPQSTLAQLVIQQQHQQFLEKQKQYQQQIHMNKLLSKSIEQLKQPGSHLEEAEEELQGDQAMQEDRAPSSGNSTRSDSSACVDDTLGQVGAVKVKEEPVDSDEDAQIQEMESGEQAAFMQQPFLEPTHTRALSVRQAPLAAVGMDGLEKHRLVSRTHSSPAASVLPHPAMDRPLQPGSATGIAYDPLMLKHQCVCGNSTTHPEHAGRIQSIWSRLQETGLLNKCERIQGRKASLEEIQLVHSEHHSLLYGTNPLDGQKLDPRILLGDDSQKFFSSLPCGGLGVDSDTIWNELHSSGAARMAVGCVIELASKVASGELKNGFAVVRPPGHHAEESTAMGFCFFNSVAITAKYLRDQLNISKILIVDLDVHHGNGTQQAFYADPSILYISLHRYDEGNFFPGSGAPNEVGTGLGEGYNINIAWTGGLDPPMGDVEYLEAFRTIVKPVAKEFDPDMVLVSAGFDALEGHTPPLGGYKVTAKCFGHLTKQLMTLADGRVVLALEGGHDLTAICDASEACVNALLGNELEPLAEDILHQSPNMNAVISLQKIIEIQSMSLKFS
One number for each entry, as −log10 of the molar value.

O=C(NO)c1ccc(NCc2csc3ccccc23)cc1    5.15

Now let's try a different one.
Prompt line: Any idea what pIC50 was measured for O=C(NO)c1ccc(NCc2csc3cc(Br)ccc23)cc1 [Compound 13a] ?
Response line: 4.60

---

# assayed-target: HDAC6 (Homo sapiens)
# Sequence (Q9UBN7 whole entry): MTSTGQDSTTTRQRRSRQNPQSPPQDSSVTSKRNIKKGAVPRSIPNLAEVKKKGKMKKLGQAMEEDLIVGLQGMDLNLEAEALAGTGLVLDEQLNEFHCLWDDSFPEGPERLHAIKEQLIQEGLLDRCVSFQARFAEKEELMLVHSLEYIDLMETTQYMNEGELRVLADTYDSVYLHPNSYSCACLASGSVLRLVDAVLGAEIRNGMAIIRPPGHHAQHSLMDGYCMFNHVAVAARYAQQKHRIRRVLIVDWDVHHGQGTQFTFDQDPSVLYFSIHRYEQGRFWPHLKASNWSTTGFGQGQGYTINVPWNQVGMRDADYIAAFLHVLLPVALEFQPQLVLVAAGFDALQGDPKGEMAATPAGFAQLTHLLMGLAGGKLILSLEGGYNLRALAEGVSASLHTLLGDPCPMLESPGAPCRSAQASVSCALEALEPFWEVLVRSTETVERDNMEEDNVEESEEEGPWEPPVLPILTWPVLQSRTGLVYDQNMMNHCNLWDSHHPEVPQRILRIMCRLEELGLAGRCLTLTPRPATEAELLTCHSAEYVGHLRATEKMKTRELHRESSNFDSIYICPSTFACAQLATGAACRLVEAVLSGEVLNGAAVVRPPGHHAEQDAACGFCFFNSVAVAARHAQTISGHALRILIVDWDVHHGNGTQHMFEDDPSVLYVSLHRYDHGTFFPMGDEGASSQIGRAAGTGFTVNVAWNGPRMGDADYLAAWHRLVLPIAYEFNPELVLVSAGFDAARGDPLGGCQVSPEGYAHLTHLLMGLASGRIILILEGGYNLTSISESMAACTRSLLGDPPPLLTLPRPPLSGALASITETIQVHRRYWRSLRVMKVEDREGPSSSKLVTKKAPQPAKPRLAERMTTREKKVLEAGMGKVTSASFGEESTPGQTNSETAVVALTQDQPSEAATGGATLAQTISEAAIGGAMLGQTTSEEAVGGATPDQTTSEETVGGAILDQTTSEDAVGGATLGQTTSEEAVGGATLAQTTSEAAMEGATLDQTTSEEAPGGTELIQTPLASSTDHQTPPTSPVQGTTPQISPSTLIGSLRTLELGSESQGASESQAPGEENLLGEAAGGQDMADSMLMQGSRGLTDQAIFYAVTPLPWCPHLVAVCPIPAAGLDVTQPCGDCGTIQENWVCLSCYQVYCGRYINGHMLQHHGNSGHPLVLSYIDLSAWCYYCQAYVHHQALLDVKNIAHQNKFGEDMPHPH
# assay-details: In vitro HDAC6 inhibition
# Type: biochemical
# measurement-setup: Table 2; read-out: IC50 HDAC6
observation-type: pIC50
Numbers only, as −log10 of the molar value.

Prompt line: Any idea what pIC50 was measured for O=C(NO)c1ccc(NCc2csc3ccc(Br)cc23)cc1 ?
Response line: 7.43

---

# assayed-target: HDAC2 (Homo sapiens)
# Sequence (Q92769 whole entry, species assumed): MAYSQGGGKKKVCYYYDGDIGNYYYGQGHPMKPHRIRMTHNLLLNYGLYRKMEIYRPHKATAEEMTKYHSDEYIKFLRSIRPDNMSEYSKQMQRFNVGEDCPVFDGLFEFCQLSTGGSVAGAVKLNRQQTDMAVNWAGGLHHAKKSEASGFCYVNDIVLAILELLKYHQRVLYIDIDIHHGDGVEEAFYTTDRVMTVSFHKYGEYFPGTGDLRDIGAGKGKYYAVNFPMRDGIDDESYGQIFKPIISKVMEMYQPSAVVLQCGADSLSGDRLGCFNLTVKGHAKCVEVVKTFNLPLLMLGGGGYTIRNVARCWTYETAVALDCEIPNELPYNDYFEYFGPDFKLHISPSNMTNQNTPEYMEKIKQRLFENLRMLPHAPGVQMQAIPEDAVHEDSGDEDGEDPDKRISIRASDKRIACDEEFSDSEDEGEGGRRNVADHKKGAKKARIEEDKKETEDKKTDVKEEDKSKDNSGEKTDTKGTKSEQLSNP
Please go through the items and note down their IC50.
Kindly write the number and append the unit.

Would you be so kind as to report IC50 for each listed record?
1. O=C(NO)c1ccc(NCc2csc3cc(Br)ccc23)cc1 [Compound 13a]
2. O=C(NO)c1ccc(NCc2csc3ccccc23)cc1

Response line:
["20 µM", "30 µM"]

---

Entries with their measured pIC50, system HDAC11 (Homo sapiens):
Give bare numbers, as −log10 of the molar value.

O=C(NO)c1ccc(NCc2csc3ccccc23)cc1 [Compound 7a]    4.51

Prompt line: Any idea what pIC50 was measured for O=C(NO)c1ccc(NCc2csc3cc(Br)ccc23)cc1 [Compound 13a] ?
Response line: 5.92

---

# assayed-target: HDAC4 (Homo sapiens, UniProt P56524)
# Sequence (P56524 whole entry, species assumed): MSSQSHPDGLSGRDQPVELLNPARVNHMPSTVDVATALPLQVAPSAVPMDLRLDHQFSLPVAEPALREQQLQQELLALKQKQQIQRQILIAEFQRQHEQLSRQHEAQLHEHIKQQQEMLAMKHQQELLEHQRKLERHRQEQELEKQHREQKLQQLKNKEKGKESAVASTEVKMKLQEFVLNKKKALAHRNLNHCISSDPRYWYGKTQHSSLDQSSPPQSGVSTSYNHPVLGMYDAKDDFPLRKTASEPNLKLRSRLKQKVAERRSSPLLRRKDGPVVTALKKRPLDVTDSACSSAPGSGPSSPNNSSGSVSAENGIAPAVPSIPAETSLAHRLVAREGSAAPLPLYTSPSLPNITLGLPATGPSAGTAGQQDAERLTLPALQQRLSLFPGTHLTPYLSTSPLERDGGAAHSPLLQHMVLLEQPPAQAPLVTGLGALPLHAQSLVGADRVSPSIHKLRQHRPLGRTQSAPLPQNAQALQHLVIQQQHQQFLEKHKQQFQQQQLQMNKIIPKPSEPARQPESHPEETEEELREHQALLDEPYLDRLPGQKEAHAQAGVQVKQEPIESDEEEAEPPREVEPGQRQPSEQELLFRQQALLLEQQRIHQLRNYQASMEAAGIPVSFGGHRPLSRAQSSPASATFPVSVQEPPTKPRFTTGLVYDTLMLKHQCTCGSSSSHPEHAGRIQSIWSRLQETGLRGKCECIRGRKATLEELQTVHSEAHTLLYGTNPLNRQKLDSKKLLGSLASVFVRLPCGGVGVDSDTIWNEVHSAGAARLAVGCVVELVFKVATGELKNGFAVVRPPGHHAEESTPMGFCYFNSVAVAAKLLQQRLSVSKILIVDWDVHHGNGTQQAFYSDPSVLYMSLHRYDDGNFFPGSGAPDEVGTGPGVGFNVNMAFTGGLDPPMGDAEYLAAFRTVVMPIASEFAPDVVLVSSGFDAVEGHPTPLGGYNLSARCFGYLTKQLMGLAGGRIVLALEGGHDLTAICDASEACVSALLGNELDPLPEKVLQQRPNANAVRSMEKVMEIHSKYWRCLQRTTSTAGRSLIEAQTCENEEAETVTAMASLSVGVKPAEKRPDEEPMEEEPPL
Please go through the items and note down their IC50.
Give bare numbers, in µM.

O=C(NO)c1ccc(NCc2csc3cc(Br)ccc23)cc1 [Compound 13a]    31

Now let's try a different one.
Prompt line: Any idea what IC50 was measured for O=C(NO)c1ccc(NCc2csc3ccccc23)cc1 [Compound 7a] ?
Response line: 10

---

# assayed-target: HDAC3 (Homo sapiens)
# Sequence (O15379 whole entry, species assumed): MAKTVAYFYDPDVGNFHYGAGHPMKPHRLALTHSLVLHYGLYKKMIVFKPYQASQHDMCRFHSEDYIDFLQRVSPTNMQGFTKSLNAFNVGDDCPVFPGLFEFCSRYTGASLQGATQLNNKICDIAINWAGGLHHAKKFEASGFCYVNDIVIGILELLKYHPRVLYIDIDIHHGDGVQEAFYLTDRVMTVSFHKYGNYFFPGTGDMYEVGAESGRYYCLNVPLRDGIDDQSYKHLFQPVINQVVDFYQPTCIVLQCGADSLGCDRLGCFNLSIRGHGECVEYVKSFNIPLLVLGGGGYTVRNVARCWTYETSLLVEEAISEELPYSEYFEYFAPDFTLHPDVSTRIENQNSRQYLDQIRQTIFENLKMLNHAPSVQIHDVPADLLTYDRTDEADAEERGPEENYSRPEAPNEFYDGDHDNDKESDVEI
# Sequence (Q9Y618 395-489 partner limits assumed, species assumed): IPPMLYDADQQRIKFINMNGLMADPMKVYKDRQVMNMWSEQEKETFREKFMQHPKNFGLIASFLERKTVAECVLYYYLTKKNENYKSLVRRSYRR
observation-type: IC50 (µM)
One number for each entry, in µM.

Prompt line: For the record O=C(NO)c1ccc(NCc2csc3cc(Br)ccc23)cc1 [Compound 13a] , what value of IC50 is listed for HDAC3 (Homo sapiens)?
Response line: 6.6

---

# assayed-target: HDAC6 (Homo sapiens)
# assay-details: In vitro HDAC6 inhibition
# Format: biochemical
# measurement-setup: HDAC6, 10 μM
observation-type: inhibition at 10 µM (%)
Numbers only, in %.

Cc1cc(C(=O)NO)ccc1NCc1csc2ccccc12 [Compound 7d]    73.4

Would you be so kind as to report inhibition at 10 µM for each listed record?
1. O=C(NO)c1ccc(NCc2csc3cc(-c4ccccc4)ccc23)cc1 [Compound 13b]
2. O=C(NO)c1ccc(N(Cc2ccccc2)Cc2csc3cc(Br)ccc23)cc1 [Compound 14a]
3. O=C(NO)c1ccc(NCc2c[nH]c3ccccc23)cc1 [Compound 18]

Response line:
89.8
70.7
99

---

observation-type: melting point (°C)
Give bare numbers, in °C.

O=C(NO)c1ccc(N(Cc2ccccc2)Cc2csc3ccccc23)cc1 [Compound 8a]    178
O=C(NO)c1ccc(NCc2csc3ccc(-c4ccccc4)cc23)cc1 [Compound 7c]    181
Cc1cc(C(=O)NO)ccc1NCc1csc2ccccc12 [Compound 7d]    190
O=C(NO)c1ccc(NCc2csc3ccccc23)cc1 [Compound 7a]    191
O=C(NO)c1ccc(N(Cc2ccccc2)Cc2csc3ccc(-c4ccccc4)cc23)cc1 [Compound 8c]    126
O=C(NO)c1ccc(NCc2csc3cc(-c4ccccc4)ccc23)cc1 [Compound 13b]    190.5
O=C(NO)c1ccc(NCc2c[nH]c3ccccc23)cc1 [Compound 18]    132.5
O=C(NO)c1ccc(N(Cc2ccccc2)Cc2csc3cc(Br)ccc23)cc1 [Compound 14a]    97.5

Would you be so kind as to report melting point for each listed record?
1. O=C(NO)c1ccc(NCc2csc3cc(Br)ccc23)cc1 [Compound 13a]
2. O=C(NO)c1ccc(N(Cc2ccccc2)Cc2csc3ccc(Br)cc23)cc1 [Compound 8b]
3. O=C(NO)c1ccc(N(Cc2ccccc2)Cc2csc3cc(-c4ccccc4)ccc23)cc1 [Compound 14b]

Response line:
1. 179.5
2. 179
3. 102
